measurement-notes: Lipid nanoparticle size and polydispersity by dynamic light scattering
Assay type: physicochemical
condition-summary: LNP of lipid/DSPC/cholesterol/PEG-lipid 50:10:38.5:1.5 encapsulating hEPO mRNA
property-name: polydispersity
Could you keep your reply to the number by itself?

These recorded examples may help you get a feel for the data.
> print(dat)
                                   compound  experimental.result
1  CCCCCCCCCCCOC(=O)CCCCCN(CCN(CCO)CCCCCC(=O)OCC(CCCCCCCC)CCCCCCCC)C1CCC(F)(F)CC1 [Compound 49]                  0.1
2  CCCCCCCC/C=C\CCCCCCCC(=O)OCCCCCN(CCO)CCN(CCCCCNC(=O)CC(CCCCCC)CCCCCCCC)C1CCCCCC1 (stereo not shown) [Compound 152]                0.031
3  CCCCCCCC(=O)OCC(CCCCN(CCO)CCCCN(CCCCC(COC(=O)CCCCCCC)COC(=O)CCCCCCC)C1CCCC1)COC(=O)CCCCCCC [Compound 181]                0.154

Turning now to a further compound:
**Query** Give me measured polydispersity, please, for this compound: CCCCCCCCCCCOC(=O)CCCCCN(CCN(CCO)CCCCC(COC(=O)CCCCCCC)COC(=O)CCCCCCC)C1CCCC1 [Compound 183]
**Result** 0.032
